assay: PET-CT tumour retention of the tracer after ICI treatment; format: in vivo, BALB/c mice; details: BALB/c, mouse, CT26 tumour, iv, 10 MBq, total radioactivity, Treatment responsive tumours (TR), αPD1; PET-CT day 12, 20 min static from 60 min post-injection, ~10 MBq i.v.; mean ± SD
Bridges are numbered along the chain shown (N, C = ends). Where no end group is shown, it is not given here. The star is where a group is joined. NOTA = O=C(O)CN1CCN(CC(=O)O)CCN(CC(=O)*)CC1

[
  {
    "SUBSTANCE": "{NOTA}-RTCESASHKFEGPCLRDSNCANVCKTEGFHGGKCKGLRRRCFCTKHC (disulfide 3-47, 14-34, 20-41, 24-43) [[^18F]AlF-NOTA-KCNA3P]",
    "tissue uptake (%ID/g)": 0.87
  }
]
